Activity overview
- System: Escherichia coli
- protocol-description: Activity of Escherichia coli TOP10 beta-lactamase OXA-58 assessed per mg of protein at 100 uM
quantity-name: Activity (mU/mg)

compound: Cc1onc(-c2ccccc2)c1C(=O)N[C@@H]1C(=O)N2[C@@H]1SC(C)(C)[C@@H]2C(=O)O
target-of-assay: Escherichia coli
numeric-readout: 210
--
compound: C[C@@H](O)[C@H]1C(=O)N2C(C(=O)O)=C(SCCNC=N)C[C@H]12 [IMIPENEM ANHYDROUS]
target-of-assay: Escherichia coli
numeric-readout: 3
--
compound: C[C@@H](O)[C@H]1C(=O)N2C(C(=O)O)=C(S[C@@H]3CN[C@H](C(=O)N(C)C)C3)[C@H](C)[C@H]12
target-of-assay: Escherichia coli
numeric-readout: 1
--
compound: CC(C)(O/N=C(\C(=O)N[C@@H]1C(=O)N2C(C(=O)[O-])=C(C[n+]3ccccc3)CS[C@H]12)c1csc(N)n1)C(=O)O
target-of-assay: Escherichia coli
numeric-readout: 1.5
--
compound: CC1(C)S[C@@H]2[C@H](NC(=O)Cc3ccccc3)C(=O)N2[C@H]1C(=O)O
target-of-assay: Escherichia coli
numeric-readout: 150
--
compound: CC(=O)OCC1=C(C(=O)O)N2C(=O)[C@@H](NC(=O)Cc3cccs3)[C@H]2SC1
target-of-assay: Escherichia coli
numeric-readout: 15

Taken from ChEMBL document CHEMBL1255327.
